Test: Solubility pH 7.4
Type: physicochemical
Settings: aqueous buffer, Table 1
Each record here notes measured solubility.

Identify solubility associated with the compound Cc1ccc(C#N)cc1-n1c(=N)n(C)c2cnc3ccc(-c4ccc(OCCCN(C)C)nc4)cc3c21 [Compound 106]
> 49 µg/mL

Identify solubility associated with the compound Cn1c(=N)n(C2CCCCC2)c2c3cc(-c4ccc(Cl)cc4)ccc3ncc21 [Compound 102]
22.3 µg/mL

Identify solubility associated with the compound CCn1c(=N)n(-c2cc(C#N)ccc2C)c2c3cc(-c4ccc(Cl)cc4)ccc3ncc21 [Compound 93]
13.6 µg/mL

Identify solubility associated with the compound Cn1c(=N)n(C2CC(N3CCNCC3)C2)c2c3cc(-c4ccc(Cl)cc4)ccc3ncc21 (stereo not shown) [Compound 98]
> 44 µg/mL

Identify solubility associated with the compound COc1ccc(-n2c(=N)n(C)c3cnc4ccc(-c5ccc(Cl)cc5)cc4c32)cc1C#N [Compound 84]
< 1 µg/mL

Identify solubility associated with the compound Cn1c(=N)n(-c2cnc(N3CCNCC3)c(C#N)c2)c2c3cc(-c4ccc(Cl)cc4)ccc3ncc21 [Compound 48]
< 1 µg/mL

Identify solubility associated with the compound Cc1ccc(C#N)cc1-n1c(=N)n(C)c2cnc3ccc(-c4ccc(N)nc4)cc3c21 [Compound 2]
> 60 µg/mL

Identify solubility associated with the compound Cc1ccc(C#N)cc1-n1c(=N)n(C)c2cnc3ccc(C#Cc4ccc(Cl)cc4)cc3c21 [Compound 155]
< 1 µg/mL

Identify solubility associated with the compound COc1cc(-c2ccc3ncc4c(c3c2)n(-c2cc(C#N)ccc2C)c(=N)n4C)ccc1Cl [Compound 31]
< 1 µg/mL

Identify solubility associated with the compound Cc1ccc(C#N)cc1-n1/c(=N/C#N)n(C)c2cnc3ccc(-c4ccc(N)nc4)cc3c21 [Compound 4]
3.7 µg/mL

Identify solubility associated with the compound Cc1ccc(C#N)cc1-n1c(=N)n(C)c2cnc3ccc(-c4ccccc4)cc3c21 [Compound 35]
> 39 µg/mL

Identify solubility associated with the compound Cc1c(C#N)cccc1-n1c(=N)n(C)c2cnc3ccc(-c4ccc(Cl)cc4)cc3c21 [Compound 69]
< 1 µg/mL

Identify solubility associated with the compound Cc1cc(N2CCN(C(N)=O)CC2)c(C#N)cc1-n1c(=N)n(C)c2cnc3ccc(-c4ccc(Cl)cc4)cc3c21 [Compound 126]
2.2 µg/mL

Identify solubility associated with the compound COC(=O)/N=c1\n(C)c2cnc3ccc(-c4ccc(Cl)cc4)cc3c2n1-c1cc(C#N)ccc1C [Compound 87]
< 1 µg/mL

Identify solubility associated with the compound Cn1c(=N)n(-c2cc(C#N)ccc2F)c2c3cc(-c4ccc(Cl)cc4)ccc3ncc21 [Compound 10]
< 1 µg/mL

Identify solubility associated with the compound Cc1ccc(S(=O)(=O)/N=c2\n(C)c3cnc4ccc(-c5ccc(Cl)cc5)cc4c3n2-c2cc(C#N)ccc2C)cc1 [Compound 16]
< 1 µg/mL
